Numbers sourced from PubChem BioAssay AID1745844.

Tested on: rodent lifetime carcinogenesis bioassay, tumor incidence TD50
assay name: carcinogenic potency in animals, long-term in vivo studies, CPDB compilation (AID 1745844)
condition: mouse; strain Charles River CD1; males; in feed; site: lung; lesion: several types; types named in the paper; dosed 93 weeks; study length 93 weeks
The source made the active and inactive calls. How the calls were made is not given here.
observable: TD50

Test system rodent lifetime carcinogenesis bioassay, tumor incidence TD50; read-out TD50; what value for OC[C@H]1O[C@@H]2O[C@H]3[C@H](O)[C@@H](O)[C@@H](O[C@H]4[C@H](O)[C@@H](O)[C@@H](O[C@H]5[C@H](O)[C@@H](O)[C@@H](O[C@H]6[C@H](O)[C@@H](O)[C@@H](O[C@H]7[C@H](O)[C@@H](O)[C@@H](O[C@H]8[C@H](O)[C@@H](O)[C@@H](O[C@H]1[C@H](O)[C@H]2O)O[C@@H]8CO)O[C@@H]7CO)O[C@@H]6CO)O[C@@H]5CO)O[C@@H]4CO)O[C@@H]3CO ?
728 mg/kg/day (inactive)

* * *

Tested on: rodent lifetime carcinogenesis bioassay, tumor incidence TD50
assay name: carcinogenic potency in animals, long-term in vivo studies, CPDB compilation (AID 1745844)
condition: rat; strain Fischer 344; females; in drinking water; site: esophagus; lesion: several types; types named in the paper; dosed 25 weeks; study length 128 weeks
observable: TD50

Test system rodent lifetime carcinogenesis bioassay, tumor incidence TD50; read-out TD50; what value for O=NN1CC=CCC1 ?
0.216 mg/kg/day

* * *

Tested on: rodent lifetime carcinogenesis bioassay, tumor incidence TD50
assay name: carcinogenic potency in animals, long-term in vivo studies, CPDB compilation (AID 1745844)
condition: mouse; strain B6C3F1; females; in feed; site: liver; lesion: hemangioma; dosed 96 weeks; study length 104 weeks
The source made the active and inactive calls. The rule behind the calls is not given here.
observable: TD50

Entry under review: CCOc1ccc(NC(C)=O)cc1 . Reported TD50?
29200 mg/kg/day (inactive)

* * *

Test system: rodent lifetime carcinogenesis bioassay, tumor incidence TD50
assay name: carcinogenic potency in animals, long-term in vivo studies, CPDB compilation (AID 1745844)
condition: hamster; strain Syrian Golden; both sexes; by gavage; site: trachea; lesion: papillary polyp; dosed 53 weeks; study length 59 weeks
observable: TD50

Entry under review: C=CCN(CC=C)N=O . Reported TD50?
2.84 mg/kg/day

* * *

System: rodent lifetime carcinogenesis bioassay, tumor incidence TD50
assay name: carcinogenic potency in animals, long-term in vivo studies, CPDB compilation (AID 1745844)
condition: rat; strain Sprague-Dawley; males; inhaled; site: kidney; lesion: nephroblastoma; dosed 25 weeks; study length 139 weeks
observable: TD50 (mg/kg/day)
Reply with just the number (in mg/kg/day).

Entry under review: C=CCl . Reported TD50?
1940

* * *

System: rodent lifetime carcinogenesis bioassay, tumor incidence TD50
assay name: carcinogenic potency in animals, long-term in vivo studies, CPDB compilation (AID 1745844)
condition: rat; strain MRC-Wistar; males; by gavage; site: thyroid gland; lesion: one or several types; types not named; dosed 104 weeks; study length 104 weeks
observable: TD50

Entry under review: CC(=O)CN(CC(C)=O)N=O . Reported TD50?
3.16 mg/kg/day

* * *

Test system: rodent lifetime carcinogenesis bioassay, tumor incidence TD50
assay name: carcinogenic potency in animals, long-term in vivo studies, CPDB compilation (AID 1745844)
condition: rat; strain Fischer 344; females; in drinking water; site: upper gastrointestinal tract; lesion: carcinoma; dosed 100 weeks; study length 128 weeks
observable: TD50

Entry under review: O=NN1CC=CCC1 . Reported TD50?
0.0856 mg/kg/day

* * *

Tested on: rodent lifetime carcinogenesis bioassay, tumor incidence TD50
assay name: carcinogenic potency in animals, long-term in vivo studies, CPDB compilation (AID 1745844)
condition: rat; strain Fischer 344; males; in feed; site: liver; lesion: hepatocellular adenoma + hepatocellular carcinoma + neoplastic nodule; dosed 98 weeks; study length 104 weeks
observable: TD50 (mg/kg/day)
Reply with just the number (in mg/kg/day).

Entry under review: C/C=C(/C)C(=O)O[C@H]1CCN2CC=C(COC(=O)[C@@](O)([C@H](C)OC)C(C)(C)O)[C@H]12 . Reported TD50?
7.43

* * *

Tested on: rodent lifetime carcinogenesis bioassay, tumor incidence TD50
assay name: carcinogenic potency in animals, long-term in vivo studies, CPDB compilation (AID 1745844)
condition: rat; strain F344/DuCrj; females; in drinking water; site: uterus; lesion: endometrial stromal polyp; dosed 108 weeks; study length 108 weeks
observable: TD50 (mg/kg/day)
Reply with just the number (in mg/kg/day).

Entry under review: NCC(=O)O . Reported TD50?
3100

* * *

System: rodent lifetime carcinogenesis bioassay, tumor incidence TD50
assay name: carcinogenic potency in animals, long-term in vivo studies, CPDB compilation (AID 1745844)
condition: rat; strain Fischer 344; males; in feed; site: colon + rectum; lesion: polypoid adenoma; dosed 39 weeks; study length 66 weeks
observable: TD50
Answer by giving the amount and then stating its unit.

Entry under review: Nc1c(Br)cc(Br)c2c1C(=O)c1ccccc1C2=O . Reported TD50?
297 mg/kg/day

* * *

Test system: rodent lifetime carcinogenesis bioassay, tumor incidence TD50
assay name: carcinogenic potency in animals, long-term in vivo studies, CPDB compilation (AID 1745844)
condition: mouse; strain B6AKF1; females; oral dosing; site: lung; lesion: adenoma; dosed 76 weeks; study length 76 weeks
Calls of active or inactive are those of the source. No rule for the calls is given here.
observable: carcinogen call

The following molecules have reported results that may help.
{"molecule": "CN(C)C(=O)Nc1ccc(Cl)c(Cl)c1", "carcinogen call": "negative (inactive)"}
{"molecule": "C=C1C[C@]23C[C@@]1(O)CC[C@H]2[C@@]12C=C[C@H](O)[C@@](C)(C(=O)O1)[C@H]2[C@@H]3C(=O)O", "carcinogen call": "negative (inactive)"}
{"molecule": "CCCCOCCOCCOCc1cc2c(cc1CCC)OCO2", "carcinogen call": "negative (inactive)"}
{"molecule": "CN(C)C(=O)NC1CC2CC1C1CCCC21 (configuration not stated)", "carcinogen call": "negative (inactive)"}
{"molecule": "NC(=S)Nc1cccc2ccccc12", "carcinogen call": "negative (inactive)"}

Entry under review: CCN(CC)C(=S)[S-].CCN(CC)C(=S)[S-].[Zn+2] . Reported carcinogen call?
negative (inactive)

Entry under review: Oc1ccc(OCc2ccccc2)cc1 . Reported carcinogen call?
negative (inactive)

Entry under review: CCCCOC(=O)COc1ccc(Cl)cc1Cl . Reported carcinogen call?
negative (inactive)

Entry under review: S=c1[nH]c2ccccc2s1 . Reported carcinogen call?
negative (inactive)

Entry under review: Cc1cc(O)cc(C)c1N(C)C . Reported carcinogen call?
negative (inactive)

Entry under review: CC=CC(=O)Oc1c(C(C)CCCCCC)cc([N+](=O)[O-])cc1[N+](=O)[O-] (configuration not stated) . Reported carcinogen call?
negative (inactive)

Entry under review: CC(Oc1cc(Cl)ccc1Cl)C(=O)O (configuration not stated) . Reported carcinogen call?
negative (inactive)

Entry under review: C=C(C)C(=O)Nc1ccc(Cl)c(Cl)c1 . Reported carcinogen call?
negative (inactive)

Entry under review: Oc1c(Cl)cc(Cl)cc1Sc1cc(Cl)cc(Cl)c1O . Reported carcinogen call?
negative (inactive)

Entry under review: CC(C)Oc1ccc(Nc2ccccc2)cc1 . Reported carcinogen call?
negative (inactive)

Entry under review: CC(=O)C1C(=O)C=C(C)OC1=O (configuration not stated) . Reported carcinogen call?
negative (inactive)

* * *

Reported TD50 is given for each of the following compounds.
Test system: rodent lifetime carcinogenesis bioassay, tumor incidence TD50
assay name: carcinogenic potency in animals, long-term in vivo studies, CPDB compilation (AID 1745844)
condition: mouse; strain B6C3F1; females; in feed; site: liver; lesion: hepatocellular adenoma + hepatocellular carcinoma + neoplastic nodule; dosed 101 weeks; study length 101 weeks
Reply with just the number (in mg/kg/day).

{"smiles": "Cc1cc(C)c(N)cc1C", "target or system": "rodent lifetime carcinogenesis bioassay, tumor incidence TD50", "assay value": 6.13}

# input for lookup
Entry under review: Cc1ccc(N)cc1N . Reported TD50?
26.7

* * *

Tested on: rodent lifetime carcinogenesis bioassay, tumor incidence TD50
assay name: carcinogenic potency in animals, long-term in vivo studies, CPDB compilation (AID 1745844)
condition: rat; strain MRC-Wistar; males; in drinking water; site: any site (literature study); lesion: several types; types named in the paper; dosed 52 weeks; study length 110 weeks
observable: TD50 (mg/kg/day)
Reply with just the number (in mg/kg/day).

Entry under review: O=NN1CC(=O)NC1=O . Reported TD50?
7.31

* * *

Test system: rodent lifetime carcinogenesis bioassay, tumor incidence TD50
assay name: carcinogenic potency in animals, long-term in vivo studies, CPDB compilation (AID 1745844)
condition: mouse; strain B6C3F1; females; inhaled; site: ovary; lesion: granulosa-cell tumor, benign + granulosa-cell tumor, malignant; dosed 83 weeks; study length 104 weeks
observable: TD50

Test system rodent lifetime carcinogenesis bioassay, tumor incidence TD50; read-out TD50; what value for C=CC=C ?
65.4 mg/kg/day
